HPLC Reults of initial (%) overview
# APPLIED_CONDITIONS: 40° C./75% RH/open, 2 weeks
TEST_READOUT: HPLC Reults of initial (%)

• N=C(N)NCCCC(N)C(=O)O.[2H]C([2H])(Cc1nc(-c2ccccc2)oc1C)Oc1ccc(C[C@H](OC)C(=O)O)c2sccc12 [arginine salt Form A] = 99.87
• [2H]C([2H])(Cc1nc(-c2ccccc2)oc1C)Oc1ccc(C[C@H](OC)C(=O)[O-])c2sccc12.[Na+] [Na salt Form A] = 100.03
• [2H]C([2H])(Cc1nc(-c2ccccc2)oc1C)Oc1ccc(C[C@H](OC)C(=O)[O-])c2sccc12.[K+] [K salt Form C] = 100.01
• [2H]C([2H])(Cc1nc(-c2ccccc2)oc1C)Oc1ccc(C[C@H](OC)C(=O)O)c2sccc12 [free acid Form E] = 100.07

----------
# APPLIED_CONDITIONS: 60° C./close, 8 weeks
Entries and their HPLC Reults of initial (%)
TEST_READOUT: HPLC Reults of initial (%)

- N=C(N)NCCCC(N)C(=O)O.[2H]C([2H])(Cc1nc(-c2ccccc2)oc1C)Oc1ccc(C[C@H](OC)C(=O)O)c2sccc12 [arginine salt Form A]: 99.99
- [2H]C([2H])(Cc1nc(-c2ccccc2)oc1C)Oc1ccc(C[C@H](OC)C(=O)[O-])c2sccc12.[Na+] [Na salt Form A]: 98.75
- [2H]C([2H])(Cc1nc(-c2ccccc2)oc1C)Oc1ccc(C[C@H](OC)C(=O)O)c2sccc12 [free acid Form E]: 99.95
- [2H]C([2H])(Cc1nc(-c2ccccc2)oc1C)Oc1ccc(C[C@H](OC)C(=O)[O-])c2sccc12.[K+] [K salt Form C]: 99.92

----------
# PROTOCOL: physchem
# APPLIED_CONDITIONS: SGF, 37 °C, simulated gastric fluid, thermodynamic from solid
TEST_READOUT: solubility at 2 h

- [2H]C([2H])(Cc1nc(-c2ccccc2)oc1C)Oc1ccc(C[C@H](OC)C(=O)O)c2sccc12 [free acid Form B]: 11 µg/mL

----------
# HPLC Purity (area %), main peak RRT 1.00 per record follows
# APPLIED_CONDITIONS: 60° C./close, 2 weeks
TEST_READOUT: HPLC Purity (area %), main peak RRT 1.00

• [2H]C([2H])(Cc1nc(-c2ccccc2)oc1C)Oc1ccc(C[C@H](OC)C(=O)[O-])c2sccc12.[Na+] [Na salt Form A] = 99.33
• [2H]C([2H])(Cc1nc(-c2ccccc2)oc1C)Oc1ccc(C[C@H](OC)C(=O)O)c2sccc12 [free acid Form E] = 99.04
• N=C(N)NCCCC(N)C(=O)O.[2H]C([2H])(Cc1nc(-c2ccccc2)oc1C)Oc1ccc(C[C@H](OC)C(=O)O)c2sccc12 [arginine salt Form A] = 99.76
• [2H]C([2H])(Cc1nc(-c2ccccc2)oc1C)Oc1ccc(C[C@H](OC)C(=O)[O-])c2sccc12.[K+] [K salt Form C] = 99.57

----------
# APPLIED_CONDITIONS: 60° C./close, 8 weeks
Quick reference for HPLC Purity (area %), main peak RRT 1.00 among some compounds
TEST_READOUT: HPLC Purity (area %), main peak RRT 1.00

• [2H]C([2H])(Cc1nc(-c2ccccc2)oc1C)Oc1ccc(C[C@H](OC)C(=O)[O-])c2sccc12.[Na+] [Na salt Form A] = 98.43
• N=C(N)NCCCC(N)C(=O)O.[2H]C([2H])(Cc1nc(-c2ccccc2)oc1C)Oc1ccc(C[C@H](OC)C(=O)O)c2sccc12 [arginine salt Form A] = 99.71
• [2H]C([2H])(Cc1nc(-c2ccccc2)oc1C)Oc1ccc(C[C@H](OC)C(=O)O)c2sccc12 [free acid Form E] = 98.96
• [2H]C([2H])(Cc1nc(-c2ccccc2)oc1C)Oc1ccc(C[C@H](OC)C(=O)[O-])c2sccc12.[K+] [K salt Form C] = 99.67

Entry source: patent US20260234135A1
